Exercise: for every item that follows, state its recorded RT (retention time during reverse phase HPLC as a measure of hydrophobicity).
# protocol.details: Hydrophobicity: retention time during reverse phase HPLC
# Format: physicochemical
# test.settings: Acquity CSH C18; pH 7.2 buffer/CH3CN gradient; 40° C.
Starred links: 1 amine or outer side, 2 acyl side, 3 side chain; linkers in the order of their positions; H or OH if unused. Non-standard residues stand in square brackets, D forms with d. *: point of attachment. γGlu = O=C(O)[C@H](CCC(=O)[*:2])N[*:1]; C14 diacid = O=C(O)CCCCCCCCCCCCC(=O)*; Lauroyl = CCCCCCCCCCCC(=O)*
Quote the value and follow it with the unit of measurement.

// RT (retention time during reverse phase HPLC as a measure of hydrophobicity) lookup, substance = N-dodecanoyl-Val-Ala-Ala-Pro-Tyr-OH [Example 54] , result: 7.08 min

// RT (retention time during reverse phase HPLC as a measure of hydrophobicity) lookup, substance = N-dodecanoyl-Ala-Ala-Asn-Tyr-OH (Lauroyl-AANY-OH; SMILES CCCCCCCCCCCC(=O)N[C@@H](C)C(=O)N[C@@H](C)C(=O)N[C@@H](CC(N)=O)C(=O)N[C@@H](Cc1ccc(O)cc1)C(=O)O) [Example 59] , result: 7.88 min

// RT (retention time during reverse phase HPLC as a measure of hydrophobicity) lookup, substance = N-dodecanoyl-Ala-Glu-Pro-Tyr-OH (Lauroyl-AEPY-OH; SMILES CCCCCCCCCCCC(=O)N[C@@H](C)C(=O)N[C@@H](CCC(=O)O)C(=O)N1CCC[C@H]1C(=O)N[C@@H](Cc1ccc(O)cc1)C(=O)O) [Example 77] , result: 4.17 min

// RT (retention time during reverse phase HPLC as a measure of hydrophobicity) lookup, substance = N-tetradecanoyl-βAla-βAla-Pro-Phe-OH [Example 136] , result: 8.73 min

// RT (retention time during reverse phase HPLC as a measure of hydrophobicity) lookup, substance = N-dodecanoyl-Ser-Ala-Pro-Tyr-OH (Lauroyl-SAPY-OH; SMILES CCCCCCCCCCCC(=O)N[C@@H](CO)C(=O)N[C@@H](C)C(=O)N1CCC[C@H]1C(=O)N[C@@H](Cc1ccc(O)cc1)C(=O)O) [Example 51] , result: 5.2 min

// RT (retention time during reverse phase HPLC as a measure of hydrophobicity) lookup, substance = N-dodecanoyl-Ser-Ala-Ala-Pro-Tyr-OH [Example 50] , result: 5.16 min

// RT (retention time during reverse phase HPLC as a measure of hydrophobicity) lookup, substance = N-dodecanoyl-γGlu-Ala-Pro-Arg-OH (Lauroyl-[γGlu]APR-OH; SMILES CCCCCCCCCCCC(=O)N[C@@H](CCC(=O)N[C@@H](C)C(=O)N1CCC[C@H]1C(=O)N[C@@H](CCCNC(=N)N)C(=O)O)C(=O)O) [Example 21] , result: 3.66 min

// RT (retention time during reverse phase HPLC as a measure of hydrophobicity) lookup, substance = N-dodecanoyl-Ala-Ala-Leu-Tyr-OH (Lauroyl-AALY-OH; SMILES CCCCCCCCCCCC(=O)N[C@@H](C)C(=O)N[C@@H](C)C(=O)N[C@@H](CC(C)C)C(=O)N[C@@H](Cc1ccc(O)cc1)C(=O)O) [Example 66] , result: 7.18 min

// RT (retention time during reverse phase HPLC as a measure of hydrophobicity) lookup, substance = N-dodecanoyl-Ile-Ala-Pro-Tyr-OH (Lauroyl-IAPY-OH; SMILES CCCCCCCCCCCC(=O)N[C@H](C(=O)N[C@@H](C)C(=O)N1CCC[C@H]1C(=O)N[C@@H](Cc1ccc(O)cc1)C(=O)O)[C@@H](C)CC) [Example 41] , result: 7.76 min

// RT (retention time during reverse phase HPLC as a measure of hydrophobicity) lookup, substance = N-dodecanoyl-Ala-Ala-Arg-Tyr-OH (Lauroyl-AARY-OH; SMILES CCCCCCCCCCCC(=O)N[C@@H](C)C(=O)N[C@@H](C)C(=O)N[C@@H](CCCNC(=N)N)C(=O)N[C@@H](Cc1ccc(O)cc1)C(=O)O) [Example 58] , result: 4.87 min

// RT (retention time during reverse phase HPLC as a measure of hydrophobicity) lookup, substance = N-dodecanoyl-Ala-Ala-Pro-Phe-Pro-OH [Example 24] , result: 6.88 min

// RT (retention time during reverse phase HPLC as a measure of hydrophobicity) lookup, substance = N-dodecanoyl-Ala-Ala-Ser-Tyr-OH (Lauroyl-AASY-OH; SMILES CCCCCCCCCCCC(=O)N[C@@H](C)C(=O)N[C@@H](C)C(=O)N[C@@H](CO)C(=O)N[C@@H](Cc1ccc(O)cc1)C(=O)O) [Example 70] , result: 5.43 min

// RT (retention time during reverse phase HPLC as a measure of hydrophobicity) lookup, substance = N-tetradecandioyl-Ala-Ala-Pro-Phe-OH ({C14 diacid}-AAPF-OH) [Example 16] , result: 3.11 min

Reference source: patent US20150038435A1
